tested on: Streptococcus pneumoniae; experiment: Antibacterial activity against Streptococcus pneumoniae Park.
readout name: MIC
The reply should read as a number followed by its unit.

Report MIC for CC1=C(C(=O)O)N2C(=O)[C@@H](NC(=O)[C@H](N)c3ccccc3)[C@H]2SC1 [CEPHALEXIN ANHYDROUS] please.
1 µg/mL

Similarly, CC1=C(C(=O)O)N2C(=O)C(NC(=O)[C@H](N)c3csc4ccc(F)cc34)C2SC1 (some centres undefined) ?
1 µg/mL

Similarly, CC1=C(C(=O)O)N2C(=O)C(NC(=O)[C@H](N)c3csc4ccc(Cl)cc34)C2SC1 (some centres undefined) ?
0.25 µg/mL

Similarly, CC1=C(C(=O)O)N2C(=O)C(NC(=O)[C@@H](N)c3cc4cc(Cl)ccc4s3)C2SC1 (some centres undefined) ?
0.25 µg/mL

Similarly, CC1=C(C(=O)O)N2C(=O)C(NC(=O)[C@@H](N)c3csc4ccccc34)C2SC1 (some centres undefined) ?
0.5 µg/mL

Similarly, CC1=C(C(=O)O)N2C(=O)C(NC(=O)[C@@H](N)c3cc4c(Cl)cccc4s3)C2SC1 (some centres undefined) ?
0.5 µg/mL

Similarly, CC1=C(C(=O)O)N2C(=O)C(NC(=O)[C@H](N)c3ccc4cc(Cl)ccc4c3)C2SC1 (some centres undefined) ?
0.25 µg/mL

Similarly, CC1=C(C(=O)O)N2C(=O)C(NC(=O)[C@@H](N)c3cc4ccccc4s3)C2SC1 (some centres undefined) ?
2 µg/mL

Similarly, CC1=C(C(=O)O)N2C(=O)C(NC(=O)[C@H](N)c3ccc4cccc(Cl)c4c3)C2SC1 (some centres undefined) ?
0.25 µg/mL

====

test system: Streptococcus pneumoniae; assay: Antibacterial activity against Streptococcus pneumoniae Park.
readout name: MIC (µg/mL)
Give a bare numeral; the unit µg/mL is implied.

Report MIC for COc1ccc2cc([C@@H](N)C(=O)NC3C(=O)N4C(C(=O)O)=C(C)CSC34)ccc2c1 (some centres undefined) please.
0.125

Similarly, CC1=C(C(=O)O)N2C(=O)C(NC(=O)[C@H](N)c3cccc4ccccc34)C2SC1 (some centres undefined) ?
2

Similarly, CC1=C(C(=O)O)N2C(=O)C(NC(=O)[C@H](N)c3csc4cc(F)ccc34)C2SC1 (some centres undefined) ?
0.5

Similarly, CC1=C(C(=O)O)N2C(=O)C(NC(=O)[C@@H](N)c3cc4c(s3)CCCC4)C2SC1 (some centres undefined) ?
0.25

Similarly, COc1ccc2c([C@@H](N)C(=O)NC3C(=O)N4C(C(=O)O)=C(C)CSC34)csc2c1 (some centres undefined) ?
0.125

Similarly, CC1=C(C(=O)O)N2C(=O)C(NC(=O)[C@H](N)c3csc4c(F)cccc34)C2SC1 (some centres undefined) ?
0.5

Similarly, CC1=C(C(=O)O)N2C(=O)C(NC(=O)[C@H](N)c3csc4cc(Cl)c(Cl)cc34)C2SC1 (some centres undefined) ?
0.5

Similarly, CC1=C(C(=O)O)N2C(=O)C(NC(=O)[C@H](N)c3ccc4ccccc4c3)C2SC1 (some centres undefined) ?
0.5

Similarly, CC1=C(C(=O)O)N2C(=O)C(NC(=O)[C@H](N)c3csc4cc(Cl)ccc34)C2SC1 (some centres undefined) ?
1

====

system: Staphylococcus aureus; assay: Antibacterial activity against penicillin G sensitive Staphylococcus aureus X1.1.; format: functional
Would you kindly list MIC for each of these molecules?
Give a bare numeral; the unit µg/mL is implied.

I'm curious: which MIC was measured for CC1=C(C(=O)O)N2C(=O)[C@@H](NC(=O)[C@H](N)c3ccccc3)[C@H]2SC1 [CEPHALEXIN ANHYDROUS] tested on Staphylococcus aureus?
4

Similarly, CC1=C(C(=O)O)N2C(=O)C(NC(=O)[C@@H](N)c3cc4c(s3)CCCC4)C2SC1 (stereo not given in full) ?
0.25

Similarly, CC1=C(C(=O)O)N2C(=O)C(NC(=O)[C@H](N)c3cccc4ccccc34)C2SC1 (stereo not given in full) ?
1

Similarly, CC1=C(C(=O)O)N2C(=O)C(NC(=O)[C@@H](N)c3csc4ccccc34)C2SC1 (stereo not given in full) ?
1

Similarly, COc1ccc2c([C@@H](N)C(=O)NC3C(=O)N4C(C(=O)O)=C(C)CSC34)csc2c1 (stereo not given in full) ?
1

All values here come from ChEMBL document CHEMBL1122874.
